Test system: SK-MEL-28
METHOD_DESCRIPTION: NCI tumour cell line growth inhibition, 48 h
Calls of active or inactive are those of the source. Cut-off read from the data, not from the text of the source: active = GI50 up to about 1.1 µM and inactive = higher.
RESULT_TYPE: GI50

O=C(CSc1nc2ccc(I)cc2c(=O)n1Cc1ccccc1)N/N=C/c1ccccc1 :: > 100 µM (inactive)
COc1cc(-c2nc(SC)nc3c2CCc2ccccc2-3)cc(OC)c1OC :: > 100 µM (inactive)
C=C[C@@H](OCOCC[Si](C)(C)C)[C@@H](CC)OC(CCCOC(=O)C(C)(C)C)OC (some centres not stated) :: 34.5 µM (inactive)
CCc1ccccc1NC(=O)C1=C(C)NC(C)=C(C(=O)Nc2ccccc2CC)C1c1ccccc1Cl :: > 100 µM (inactive)

Provide reported GI50 for each item, in the same order as listed.
1. CCOC(=O)C(=O)Nc1ccc(C)cc1C
2. CCCCCCCCCCCCCCCCCCOCC(O)COP(=O)(O)OCC1OC(n2cc(F)c(=O)[nH]c2=O)CC1O (configuration not stated)
3. CSC(=S)N(C)C
4. O=c1c2ccc3cccc4c(=O)cc(c5ccccc15)-c2c34
5. CCN(CC)CC(=O)N1CCc2c([nH]c3ccccc23)C1c1cccnc1 (configuration not stated)
6. NNc1nncn1N
7. C/C(=N\Nc1nnc(S)n1N)c1c(O)cc(C)oc1=O
8. COc1cccc(/C=C2\CCC(C)(CN(C)C)C2=O)c1 (configuration not stated)

**A:**
> 100 µM (inactive)
14.1 µM (inactive)
> 100 µM (inactive)
> 100 µM (inactive)
> 100 µM (inactive)
> 100 µM (inactive)
> 100 µM (inactive)
> 100 µM (inactive)
